Quick reference for melting point among some molecules

CCOC(=O)C1CCN(c2ccc3c(c2)CCC2(CCN(C4CCC4)CC2)O3)CC1; 256 to 258 °C
c1csc(CNc2ccc3c(c2)COC2(CCN(C4CCC4)CC2)O3)c1; 112 to 113 °C
O=S1(=O)CCC(c2ccc3c(c2)COC2(CCN(C4CCC4)CC2)O3)C1 (centres unmarked); 151 to 152 °C

Incoming: Any idea what its melting point is? The molecule is `CN1CCN(c2ccc3c(c2)COC2(CCN(C4CCC4)CC2)O3)C1=O`
Outgoing: 180 to 181 °C

Incoming: Give the measured melting point of `COc1cc(Oc2ccc3c(c2)CCC2(CCN(C4CCC4)CC2)O3)ccn1` .
Outgoing: 125 to 127 °C

Incoming: Return reported melting point; argument: `COCCNC(=O)CC1CCN(c2ccc3c(c2)COC2(CCN(C4CCC4)CC2)O3)CC1`
Outgoing: 150.1 to 152.2 °C

Incoming: Find the recorded melting point belonging to `COC(=O)CCc1ccc2c(c1)COC1(CCN(C3CCC3)CC1)O2` and report it.
Outgoing: 66 to 68 °C

Incoming: Using the record for `CNC(=O)c1ccc(-c2ccc3c(c2)COC2(CCN(C4CCC4)CC2)O3)c(OC)c1` , report its melting point.
Outgoing: 87 to 90 °C

Incoming: Given the entry `O=C(Nc1ccc2c(c1)CCC1(CCN(C3CCC3)CC1)O2)c1cnnc2ccccc12` , report its measured melting point.
Outgoing: 233 to 235 °C

Incoming: Endpoint output: melting point of `COCCNC(=O)c1ccc(-c2ccc3c(c2)CCC2(CCN(C4CCC4)CC2)O3)cc1C` . Value?
Outgoing: 59.8 to 60.9 °C

Incoming: Need melting point of `N#Cc1ccccc1Nc1ccc2c(c1)COC1(CCN(C3CCC3)CC1)O2` , thanks.
Outgoing: 54 to 58 °C

Incoming: melting point for `CC(C)S(=O)(=O)N1CCC(Oc2ccc3c(c2)CCC2(CCN(C4CCC4)CC2)O3)CC1` ?
Outgoing: 233 to 235 °C

Incoming: What value of melting point has been recorded for this entry: `CNC(=O)c1ccc(-c2ccc3c(c2)COC2(CCN(C4CCC4)CC2)O3)nc1`
Outgoing: 175 to 177 °C

###

Measured melting point values are reported for all entries that follow.

Some compounds with recorded melting point:
c1cc2c(cc1OCC1CCNCC1)CCC1(CCN(C3CCC3)CC1)O2; 292 to 294 °C
CN(C)C(=O)CC1CCN(c2ccc3c(c2)COC2(CCN(C4CCC4)CC2)O3)CC1; 68.5 to 70.2 °C
O=c1[nH]cc(-c2ccc3c(c2)COC2(CCN(C4CCC4)CC2)O3)cc1F; 200 to 202 °C
CN(C)C(=O)c1ccc(-c2ccc3c(c2)COC2(CCN(C4CCC4)CC2)O3)cc1F; 172.9 to 173.5 °C

Incoming: Any idea what its melting point is? The compound is `COc1ncc(-c2ccc3c(c2)COC2(CCN(C4CCC4)CC2)O3)cc1C`
Outgoing: 142 to 145 °C

Incoming: Look at this compound and give its reported melting point. `CCOC1CCN(c2ccc3c(c2)COC2(CCN(C4CCC4)CC2)O3)CC1`
Outgoing: 266 to 269 °C

Incoming: Find the recorded melting point belonging to `CS(=O)(=O)N1CCC(COc2ccc3c(c2)CCC2(CCN(C4CCC4)CC2)O3)CC1` and report it.
Outgoing: 159 to 161 °C

Incoming: Recorded melting point for `O=C(Nc1cccc(Cl)c1)Nc1ccc2c(c1)COC1(CCN(C3CCC3)CC1)O2` , please?
Outgoing: 216 to 217 °C

Incoming: Entry `O=C(c1ccc(Nc2ccc3c(c2)COC2(CCN(C4CCC4)CC2)O3)cc1)N1CCOCC1` : reported melting point = ?
Outgoing: 79 to 84 °C

Incoming: Given the entry `O=C1CCCN1CCOc1ccc2c(c1)CCC1(CCN(C3CCC3)CC1)O2` , report its measured melting point.
Outgoing: 170 to 172 °C

###

Counter-ions that a name gives are not always drawn.
Reported melting point values are given for each entry in this list.

For orientation, consider the following solved cases.
COCCN(C)C(=O)c1ccc(-c2ccc3c(c2)CCC2(CCN(C4CCC4)CC2)O3)cc1Cl [Example 575]; 101 to 104 °C
NC(=O)c1ccc(-c2ccc3c(c2)COC2(CCN(C4CCC4)CC2)O3)cc1Cl [Example 604]; 164 to 166 °C

Incoming: State the recorded melting point for this entry: c1ccc(Oc2ccc3c(c2)COC2(CCN(C4CCC4)CC2)O3)cc1 (as salt: HCl) [Example 131]
Outgoing: 240 to 245 °C

Incoming: Sample COc1ncc(Oc2ccc3c(c2)CCC2(CCN(C4CCC4)CC2)O3)cn1 [Example 503] — what was its melting point?
Outgoing: 227 to 229 °C

Incoming: Name the reported melting point value associated with the molecule CC(C)NC(=O)c1ccc(-c2ccc3c(c2)COC2(CCN(C4CCC4)CC2)O3)cc1 [Example 301]
Outgoing: 221 to 222 °C

Incoming: Reported melting point, molecule CNC(=O)c1ccc(-c2ccc3c(c2)COC2(CCN(C4CCC4)CC2)O3)s1 [Example 176] : ____
Outgoing: 215 to 219 °C

Incoming: Query: melting point; subject: Cc1ccncc1-c1ccc2c(c1)COC1(CCN(C3CCC3)CC1)O2 [Example 745]
Outgoing: 200 to 202 °C

###

READOUT LABEL: melting point

Cc1c(-c2ccc3c(c2)COC2(CCN(C4CCC4)CC2)O3)c[nH]c(=O)c1C [Example 799]; 178 to 180 °C
O=S1(=O)CCC(C(O)c2ccc3c(c2)COC2(CCN(C4CCC4)CC2)O3)CC1 (stereo not shown) [Example 511]; 127 to 129 °C
COc1ccc(-c2ccc3c(c2)COC2(CCN(C4COC4)CC2)O3)cn1 [Example 713]; 162 to 164 °C
CNC(=O)c1cc(-c2ccc3c(c2)COC2(CCN(C4CCC4)CC2)O3)cs1 [Example 607]; 186 to 188 °C
O=c1cc(-c2ccc3c(c2)COC2(CCN(C4CCC4)CC2)O3)c(Cl)cn1CC(F)(F)F [Example 781]; 194 to 197 °C

Incoming: Using the record for FC(F)(F)COc1cc(-c2ccc3c(c2)COC2(CCN(C4CCC4)CC2)O3)c(Cl)cn1 [Example 782] , report its melting point.
Outgoing: 119 to 121 °C

Incoming: // melting point lookup, key: CN(C)c1ncc(-c2ccc3c(c2)COC2(CCN(C4CCC4)CC2)O3)cn1 [Example 42]
Outgoing: 204.8 to 205.8 °C

Incoming: melting point lookup needed for COCCNC(=O)c1ccc(-c2ccc3c(c2)COC2(CCN(C4CCC4)CC2)O3)cc1C [Example 255] , thanks.
Outgoing: 124.6 to 126.4 °C

###

READOUT LABEL: melting point

Example compounds with recorded melting point:
O=C(Nc1ccc2c(c1)COC1(CCN(C3CCC3)CC1)O2)c1ccncc1 [Example 150]; 180 to 182 °C
CN(C)C(=O)c1cccc(COc2ccc3c(c2)CCC2(CCN(C4CCC4)CC2)O3)c1 [Example 602]; 183 to 185 °C
c1cc(-c2ccc3c(c2)CCC2(CCN(C4CCC4)CC2)O3)cs1 [Example 454]; 110 to 112 °C
COc1cc(-c2ccc3c(c2)COC2(CCN(C4CCC4)CC2)O3)ccc1C(N)=O [Example 742]; 212 to 214 °C
COc1ccc(-c2ccc3c(c2)COC2(CCN(C4CCC4)CC2)O3)c(C)n1 [Example 726]; 131 to 133 °C

Incoming: For the compound O=c1c(Cl)c(-c2ccc3c(c2)COC2(CCN(C4CCC4)CC2)O3)ccn1CC(F)(F)F [Example 784] , what melting point is on record?
Outgoing: 71.2 to 73.6 °C

Incoming: Look at this compound and give its reported melting point. O=C(NCCO)c1ccc(-c2ccc3c(c2)CCC2(CCN(C4CCC4)CC2)O3)cc1F [Example 147]
Outgoing: 215 to 217 °C

###

Measured melting point, listed per entry.

Worked set:
O=C(c1ccc(-c2ccc3c(c2)COC2(CCN(C4CCC4)CC2)O3)cc1)N1CC[C@@H](F)C1 [Example 69]; 185 to 186 °C
O=c1ccc(-c2ccc3c(c2)COC2(CCN(C4CCC4)CC2)O3)cn1C(F)F [Example 737]; 125 to 127 °C
CCS(=O)(=O)c1ccc(-c2ccc3c(c2)COC2(CCN(C4CCC4)CC2)O3)cc1Cl [Example 625]; 157 to 159 °C
Clc1ccc(-c2ccc3c(c2)CCC2(CCN(C4CCC4)CC2)O3)cn1 [Example 371]; 168 to 169 °C

Incoming: Which value of melting point has been reported for O=C(c1ccc(-c2ccc3c(c2)COC2(CCN(C4CCC4)CC2)O3)cc1)N1CC[C@H](O)C1 [Example 148] in the records?
Outgoing: 178 to 181 °C

Incoming: Value lookup for melting point; key = CO[C@H]1CCN(C(=O)c2ccc(-c3ccc4c(c3)COC3(CCN(C5CCC5)CC3)O4)cc2)C1 [Example 191]
Outgoing: 120 to 121 °C

Incoming: Would you mind telling me what melting point value was observed for OC(c1ccc2c(c1)COC1(CCN(C3CCC3)CC1)O2)C1CCCC1 (stereo not drawn) [Example 536] ?
Outgoing: 148 to 150 °C
